subjectOfTest: 20-HETE producing enzymes, human kidney microsome
assayDetails: Inhibition test against 20-HETE producing enzymes using human kidney microsomes (LC-MS/MS)
condition: human kidney microsome 250 μg/mL protein, 20 μM arachidonic acid, 37° C. 45 minutes, LC-MS/MS
Protocol: (1) Inhibition Test for Each Compound of the Present Invention Against 20-HETE Producing Enzymes Using Human Kidney Microsomes […] On the other hand, as described above, in Test Example 2, nonradioactive arachidonic acid was used as a substrate for 20-HETE producing reaction, and the amount of 20-HETE produced was measured using LC-MS/MS. […]
observationType: pIC50
Expect pIC50 as a plain number equal to -log10 of the molar concentration.

Completed entries (count: 3):
molecule	observed
O=C(O)C1(F)CCN(S(=O)(=O)c2cccc(COc3ccc(-c4ccn[nH]4)nc3)c2)C1 (stereo not shown)	7.82
CC(C)(COc1cc(COc2ccc(-c3ccn[nH]3)nc2)ccn1)C(=O)O	7.49
O=C(O)C1CC1c1cccc(COc2ccc(-c3ccn[nH]3)nc2)c1 (single isomer, unassigned) [Example 26-3]	7.52

// next item, pIC50 requested
Kindly note: 20-HETE producing enzymes, human kidney microsome, O=C(O)C1CCc2ccc(COc3ccc(-c4ccn[nH]4)nc3)cc2C1 (stereo not shown) , pIC50 value reported: 7.70
